For each record, write down the corresponding Dmax.
molecular target: BRD9 (Homo sapiens); assay: Degradation of BRD9 (IF), immunofluorescence in MV4-11 cells, 24 hours (Assay Protocol 2); type: cell-based; design: A suspension of MV4-11 cells (ATCC CRL-9591) was prepared; host or cells: MV4-11; settings: MV4-11, Assay protocol 2; BRD9 degradation; read-out: Dmax

Consider the molecule COc1cc(-c2cn(C)c(=O)c(C)c2C)cc(OC)c1CN1CCN(Cc2ccc3c(c2)[C@H](C)N(C(=O)/C(C#N)=C/C(C)(C)C)CC3)CC12CC2 (mixture of isomers) . State its measured Dmax.
> 75%

Consider the molecule COc1cc(-c2cn(C)c(=O)c(C)c2C)cc(OC)c1CN1CCN(Cc2ccc3c(c2)[C@@H](C)N(C(=O)/C(C#N)=C/C(C)(C)C)CC3)C2(CC2)C1 (single isomer, unassigned) . State its measured Dmax.
> 75%

Consider the molecule COc1cc(-c2cn(C)c(=O)c(C)c2C)cc(OC)c1CN1CCN(Cc2ccc3c(c2)[C@@H](C)N(C(=O)/C(C#N)=C/C(C)(C)CN2CCOCC2)CC3)C2(CC2)C1 (single isomer, unassigned) . State its measured Dmax.
70 to 75%

Consider the molecule COc1cc(-c2cn(C)c(=O)c(C)c2C)cc(OC)c1CN1CCN(Cc2ccc3c(c2)[C@@H](C)N(C(=O)/C(C#N)=C/C(C)(C)CF)CC3)CC12CC2 (single isomer, unassigned) . State its measured Dmax.
40 to 70%

Moving on to the next molecule.
Consider the molecule COc1cc(-c2cn(C)c(=O)c(C)c2C)cc(OC)c1CN1C[C@H](C)N(Cc2cccc3c2CCN(C(=O)/C(C#N)=C/C(C)(C)C)C3C(C)C)C[C@H]1C (mixture of isomers) . State its measured Dmax.
70 to 75%

* * *

target: BRD9 (Homo sapiens, UniProt Q9H8M2); assay: BRD9 degradation, HiBiT-BRD9 KI HEK293 (LgBiT) cells, NanoGlo Lytic Endpoint assay (Assay Protocol 1); type: cell-based; settings: HEK293; Assay protocol 1; BRD9 degradation; read-out: Dmax
measuredProperty: Dmax

Field: example entries. Status: answers known.
Consider the molecule COc1cc(-c2cn(C)c(=O)c(C)c2C)cc(OC)c1CN1CC(Oc2ccc3c(c2)CCN(C(=O)/C(C#N)=C/c2cccc(Br)n2)C3C)C1 (mixture of isomers) . State its measured Dmax.
40 to 70%

Consider the molecule COc1cc(-c2cn(C)c(=O)c(C)c2C)cc(OC)c1CN1CCN(Cc2cccc3c2CCN(C(=O)/C(C#N)=C/c2ccc(C)cn2)C3C)CC1 (mixture of isomers) . State its measured Dmax.
40 to 70%

Consider the molecule COc1cc(-c2cn(C)c(=O)c(C)c2C)cc(OC)c1CN1CCN(Cc2cccc(C3CCCN3C(=O)/C(C#N)=C/c3cccc(C(F)(F)F)n3)c2)CC1 (centres unmarked) . State its measured Dmax.
> 75%

Consider the molecule COc1cc(-c2cn(C)c(=O)c(C)c2C)cc(OC)c1CN1CCN(c2cccc3c2CCN(C(=O)/C(C#N)=C/c2cccc(Br)n2)C3C)CC1 (single isomer, unassigned) . State its measured Dmax.
25 to 40%

Moving on to the next molecule.
Consider the molecule COc1cccnc1/C=C(\C#N)C(=O)N1CCc2c(CN3CCN(Cc4c(OC)cc(-c5cn(C)c(=O)c(C)c5C)cc4OC)CC3)cccc2C1C (mixture of isomers) . State its measured Dmax.
40 to 70%

* * *

Molecular target: BRD9 (Homo sapiens, UniProt Q9H8M2)
Sequence (Q9H8M2 1-597): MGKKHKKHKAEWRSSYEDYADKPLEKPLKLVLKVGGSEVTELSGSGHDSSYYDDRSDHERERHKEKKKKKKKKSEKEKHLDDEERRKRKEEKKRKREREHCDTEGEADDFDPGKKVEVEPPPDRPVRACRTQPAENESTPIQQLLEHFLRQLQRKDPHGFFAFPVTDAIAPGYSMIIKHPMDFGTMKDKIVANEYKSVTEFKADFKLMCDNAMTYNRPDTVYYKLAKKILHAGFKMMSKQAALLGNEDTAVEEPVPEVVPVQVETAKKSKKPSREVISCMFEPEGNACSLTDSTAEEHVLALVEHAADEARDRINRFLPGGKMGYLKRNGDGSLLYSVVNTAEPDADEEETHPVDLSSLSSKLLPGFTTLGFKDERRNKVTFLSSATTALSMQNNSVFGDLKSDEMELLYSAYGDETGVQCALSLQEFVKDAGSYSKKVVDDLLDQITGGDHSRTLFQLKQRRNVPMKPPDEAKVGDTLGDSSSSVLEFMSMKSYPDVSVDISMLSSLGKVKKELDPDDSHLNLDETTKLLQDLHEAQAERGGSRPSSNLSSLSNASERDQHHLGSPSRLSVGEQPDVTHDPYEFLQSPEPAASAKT
Experiment: Degradation of BRD9 (IF), immunofluorescence in MV4-11 cells, 24 hours (Assay Protocol 2)
Assay type: cell-based
Parameters: A suspension of MV4-11 cells (ATCC CRL-9591) was prepared; host or cells: MV4-11
Conditions: Assay protocol 2; BRD9 degradation; read-out: DC50
For each record, write down the corresponding DC50.

Field: example entries. Status: answers known.
Consider the molecule COc1cc(-c2cn(C)c(=O)c(C)c2C)cc(OC)c1CN1CCN(Cc2cccc3c2CCN(C(=O)/C(C#N)=C/c2cnc(C)cn2)C3C)CC1 (mixture of isomers) . State its measured DC50.
< 1.25 nM

Consider the molecule COc1cc(-c2cn(C)c(=O)c(C)c2C)cc(OC)c1CN1CCC2(C1)CN(c1cccc3c1CCN(C(=O)/C(C#N)=C/C(C)(C)C)C3C)C2 (mixture of isomers) . State its measured DC50.
< 1.25 nM

Consider the molecule COc1cc(-c2cn(C)c(=O)c(C)c2C)cc(OC)c1CN1C[C@H](C)N(Cc2cccc3c2CCN(C(=O)/C(C#N)=C/C(C)(C)C)C3C)[C@@H](C)C1 (mixture of isomers) . State its measured DC50.
25 to 1000 nM

Consider the molecule COc1cc(-c2cn(C)c(=O)c(C)c2C)cc(OC)c1CN1CCN(Cc2cccc3c2CCN(C(=O)/C(C#N)=C/C2CC(F)(F)C2)C3C)CC1 (mixture of isomers) . State its measured DC50.
< 1.25 nM

Lab note: each molecule below needs its DC50 filled in.
1. COc1cc(-c2cn(C)c(=O)c(C)c2C)cc(OC)c1CN1CC2CC(C1)N2Cc1cccc2c1CCN(C(=O)/C(C#N)=C/c1ccnc(C)n1)C2C (mixture of isomers)
2. COc1cc(-c2cn(C)c(=O)c(C)c2C)ccc1OC1CCC(Cc2cccc3c2CCN(C(=O)/C(C#N)=C/C(C)(C)N2CCN(C)CC2)C3C)CC1 (stereo not shown)
3. COc1cc(-c2cn(C)c(=O)c(C)c2C)cc(OC)c1CN1C[C@H](C)N(Cc2cccc3c2CCN(C(=O)/C(C#N)=C/C(C)(C)C)C3C)C[C@H]1C (mixture of isomers)
4. COc1cc(-c2cn(C)c(=O)c(C)c2C)cc(OC)c1CN1CCN(Cc2cccc3c2CCN(C(=O)/C(C#N)=C\C(C)(C)CF)C3C)C2(CC2)C1 (mixture of isomers)
5. COc1cc(-c2cn(C)c(=O)c(C)c2C)cc(OC)c1CN1CCC2(CCN(c3ccc4c(c3)[C@H](C)N(C(=O)/C(C#N)=C/C(C)(C)C)CC4)CC2)C1
6. COCC1(OC)c2cccc(CN3CCN(Cc4c(OC)cc(-c5cn(C)c(=O)c(C)c5C)cc4OC)CC34CC4)c2CCN1C(=O)/C(C#N)=C/C(C)(C)C (mixture of isomers)

["1.25 to 10 nM", "25 to 1000 nM", "10 to 25 nM", "< 1.25 nM", "25 to 1000 nM", "1.25 to 10 nM"]

* * *

molecular target: BRD9 (Homo sapiens, UniProt Q9H8M2); assay: Degradation of BRD9 (IF), immunofluorescence in MV4-11 cells, 24 hours (Assay Protocol 2); assay type: cell-based; set-up: A suspension of MV4-11 cells (ATCC CRL-9591) was prepared; host or cells: MV4-11; details: Assay protocol 2; BRD9 degradation; read-out: DC50
For each record, write down the corresponding DC50.

Field: example entries. Status: answers known.
Consider the compound COc1cc(-c2cn(C)c(=O)c3ccsc23)cc(OC)c1CN1CCC(Oc2cccc3c2CCN(C(=O)/C(C#N)=C/c2cccc(Br)n2)C3C)CC1 (mixture of isomers) . State its measured DC50.
< 1.25 nM

Consider the compound COc1cc(-c2cn(C)c(=O)c(C)c2C)cc(OC)c1CN1CCN(Cc2ccc3c(c2)C(C)N(C(=O)/C(C#N)=C/C(C)(C)C)CC3)C2(CC2)C1 (mixture of isomers) . State its measured DC50.
< 1.25 nM

Consider the compound COc1cc(-c2cn(C)c(=O)c(C)c2C)cc(OC)c1CN1CCN(Cc2cccc3c2CCN(C(=O)/C(C#N)=C/C24CC(C2)C4)C3C)CC1 (mixture of isomers) . State its measured DC50.
< 1.25 nM

Consider the compound COc1cc(-c2cn(C)c(=O)c(C)c2C)cc(OC)c1CN1CCN(Cc2cccc3c2CCN(C(=O)/C(C#N)=C/C(C)(C)C)C3C)CC12CC2 (mixture of isomers) . State its measured DC50.
1.25 to 10 nM

Moving on to the next compound.
Consider the compound COc1cc(-c2cn(C)c(=O)c(C)c2C)cc(OC)c1CN1CCN(Cc2ccc3c(c2)[C@H](C(C)C)N(C(=O)/C(C#N)=C/C(C)(C)C)CC3)C2(CC2)C1 (single isomer, unassigned) . State its measured DC50.
10 to 25 nM
